METHOD: chemical genetic growth profiling, strain panel (AID 1159580);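 further: tested at 20 µM; growth read once vehicle control cultures reached saturation at 30 °C; 1 = growth at the plate median or of vehicle wells; lower values mean less growth of the strain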
ASSAY_CONDITIONS: S. cerevisiae deletion strains, growth OD, locus YCL061C, strain MRC1 (second series), active compounds read low
Hit rate of the full screen: of about 5,500 compounds, about 2,000 (36%) were called active. Inconclusive results (about 18%) are left out. The list shows a part of the results.
normalized growth values for the molecules below.
In your answer, state the number alone without any accompanying words.

Below, each entry is followed by its recorded normalized growth result.
>>> readout_number("N[C@H](CO)C(=O)O")
1
>>> readout_number("CCCCC#Cc1nc(N)c2ncn([C@@H]3O[C@H](C(=O)NCC)[C@@H](O)[C@H]3O)c2n1")
0.996

Record summary for NCCc1c[nH]c2ccc(C(N)=O)cc12 : reported normalized growth = 1

CN1CCc2cccc(Cl)c2CC1 has a reported normalized growth of 1.01

Just so you know, measured normalized growth for CCNC(=O)[C@H]1O[C@@H](n2cnc3c(N)ncnc32)C(O)[C@H]1O (some centres not stated) came out at 1

So, Cc1ccc([N+](=O)[O-])cc1S(=O)(=O)N(C)C ? Its normalized growth was 1

====

METHOD: chemical genetic growth profiling, strain panel (AID 1159580);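 further: tested at 20 µM; growth read once vehicle control cultures reached saturation at 30 °C; 1 = growth at the plate median or of vehicle wells; lower values mean less growth of the strain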
ASSAY_CONDITIONS: S. cerevisiae deletion strains, growth OD, locus YPR163C, strain tif3, active compounds read low
About 2,000 (36%) of roughly 5,500 compounds were called active. Not shown: some 18% with an inconclusive outcome. The list shows a part of the results.
Item-by-item account of normalized growth
No unit in the answer, only the number.

The following compounds have reported results that may help.
>>> readout_number("CCC(C)(C)C(=O)O[C@H]1C[C@@H](C)C=C2C=C[C@H](C)[C@H](CC[C@@H]3C[C@@H](O)CC(=O)O3)[C@H]21")
1.01
>>> readout_number("CC[C@H](C)C(=O)O[C@H]1CCC=C2C=C[C@H](C)C(CCC3C[C@@H](O)CC(=O)O3)[C@H]21 (stereo partly drawn)")
0.992
>>> readout_number("COC(=O)C[C@H]1C(C)(C)C(=O)[C@@H]2CC3=C(CC[C@]4(C)C3=CC(=O)O[C@H]4c3ccoc3)[C@@]1(C)C2=O")
1
>>> readout_number("CC(C)NC[C@H](O)COc1cccc2ccccc12")
1.02
>>> readout_number("O=c1[nH]oc2c1CCNC2")
0.968
>>> readout_number("NC[C@@H]1CC[C@@H](N)[C@@H](O[C@H]2[C@H](O)[C@@H](O[C@H]3O[C@H](CO)[C@@H](O)[C@H](N)[C@H]3O)[C@H](N)C[C@@H]2N)O1")
1.01

Item: CC1(C)O[C@H]2[C@H](O)C[C@](O)(C(N)=O)C[C@H]2O1 | normalized growth: 1.04

In plain terms, CC[N+](CC)(CC)CCOc1cccc(OCC[N+](CC)(CC)CC)c1OCC[N+](CC)(CC)CC has a documented normalized growth of 1.02

====

METHOD: chemical genetic growth profiling, strain panel (AID 1159580);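 further: tested at 20 µM; growth read once vehicle control cultures reached saturation at 30 °C; 1 = growth at the plate median or of vehicle wells; lower values mean less growth of the strain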
ASSAY_CONDITIONS: S. cerevisiae deletion strains, growth OD, locus YPL204W, strain HRR25
About 2,000 (36%) of roughly 5,500 compounds were called active. Another 18% or so got no clear call; they are omitted. Cut-off read from the data, not from the text of the source: active = normalized growth mostly below about 0.91 (no sharp cut-off); inconclusive = no clear call, values can overlap the other calls; inactive = mostly above about 0.92. This is one part of the list.
Hi! Could you answer with just one of these? 1.0 for active, 0.0 for inactive

Reference set (4 entries):
>>> class("CC(=O)Nc1ccc(S(=O)(=O)Nc2ccccc2Oc2ccc(Cl)cc2Cl)cc1")
0.0
>>> class("CCCCN(C)C(=O)c1cc([N+](=O)[O-])cc2c1-c1ccc([N+](=O)[O-])cc1C2=C(C#N)C#N")
0.0
>>> class("CC(C)(C)c1ccc(C(=O)Nc2ccc(C(F)(F)F)cc2)s1")
0.0
>>> class("Cc1ccc(NS(=O)(=O)c2ccc(Cl)cc2)c(N=Cc2cc(Cl)cc(Cl)c2O)c1")
1.0

Below: the item to evaluate.
Query: recorded result category for Cc1ccc(NC(=O)c2ccccc2N=Cc2cc(Cl)cc(Cl)c2O)c(N=Cc2cc(Cl)cc(Cl)c2O)c1 in this test 1.0
